# assayed system: Brain AChE (acetylcholinesterase, rat striatum) (Rattus norvegicus, UniProt P37136)
# Sequence (P37136 32-614): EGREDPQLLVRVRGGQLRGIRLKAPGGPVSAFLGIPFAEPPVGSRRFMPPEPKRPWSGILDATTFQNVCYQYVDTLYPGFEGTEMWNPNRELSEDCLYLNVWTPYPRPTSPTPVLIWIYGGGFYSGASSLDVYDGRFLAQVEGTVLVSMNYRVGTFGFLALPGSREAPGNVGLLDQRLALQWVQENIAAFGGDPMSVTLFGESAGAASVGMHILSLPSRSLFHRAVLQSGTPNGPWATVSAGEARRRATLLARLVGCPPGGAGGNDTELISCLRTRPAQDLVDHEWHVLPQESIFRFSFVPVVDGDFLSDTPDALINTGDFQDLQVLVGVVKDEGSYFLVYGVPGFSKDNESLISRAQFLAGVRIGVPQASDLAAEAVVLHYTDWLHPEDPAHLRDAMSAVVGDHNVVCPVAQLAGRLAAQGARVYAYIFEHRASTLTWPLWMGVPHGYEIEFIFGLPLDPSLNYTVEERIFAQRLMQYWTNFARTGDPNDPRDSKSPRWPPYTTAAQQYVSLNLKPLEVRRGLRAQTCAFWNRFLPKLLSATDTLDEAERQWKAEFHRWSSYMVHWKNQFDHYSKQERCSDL
parameter measured: pIC50
Note: pIC50 values are expressed as the negative base-10 logarithm of concentration in M.

Task: So what's the measured pIC50 for this one? CNC(=O)Oc1ccc2c(ccn2N2CCOc3cnccc32)c1
Result: 7.27

====

# System: norepinephrine uptake
# protocol notes: 3H-Norepinephrine Uptake in Rat Whole Brain Synaptosomes
# Type: biochemical
# stated conditions: 50 nM 3H-NE, 37° C., 5 minutes, read-out: IC50 (3H-norepinephrine uptake inhibition)
Record form. Attribute: pIC50. Fill in for each entry.
Schema: pIC50 number; meaning minus log10 of the concentration expressed in molar units.

Task: Any idea what its pIC50 is? The compound is CNCCC=C1c2ccccc2CCc2ccccc21 [Nortriptyline]
Result: 5.40

Task: Which value of pIC50 has been reported for CN(C)CCC=C1c2ccccc2CCc2ccccc21 [Amitriptyline] in the records?
Result: 5.11

Task: What does the record list as pIC50 for Cc1cn(N2CCOc3cnccc32)c2ccccc12 ?
Result: 5.22
